Listing: EC50 of selected binders
- systemUnderTest: T1, Full length human CD40 (huCD40) on cells (human, UniProt P25942 21-277)
- T1 construct: CD40 on human mature DCs, human B cells, Raji cells and HEK-Blue CD40L cells (stably expressing human CD40); also called TNFRSF5
- T1 sequence (P25942 21-277): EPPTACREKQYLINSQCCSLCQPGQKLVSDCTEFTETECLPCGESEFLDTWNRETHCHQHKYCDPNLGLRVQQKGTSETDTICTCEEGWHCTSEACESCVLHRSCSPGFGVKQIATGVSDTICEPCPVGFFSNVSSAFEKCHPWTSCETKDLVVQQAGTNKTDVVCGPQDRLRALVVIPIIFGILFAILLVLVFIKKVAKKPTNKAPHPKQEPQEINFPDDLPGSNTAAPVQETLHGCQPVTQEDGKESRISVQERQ
- assayInfo: flow cytometry, human DCs

binder	EC50
C40M103 (antibody, human IgG1, lambda, V domains shown, Variant of C40M18 (VH C40H48, VL C40L69; LCDR1 cysteine mutated); cloned as IgG1) VH: EVQLVESGGGLVQPGGSLRLSCAASGFTFSSYAMSWVRQAPGKGLEWVSIINNNVGRTYYADSVKGRFTISRDNSKNTLYLQMNSLRAEDTAVYYCAKEGGDYYYYGMDVWGQGTTVTVSS VL: SYELTQPPSVSVSPGQTASITCSGDKLGDKYVSWYQQKPGQSPVLVIYQDSKRPSGIPERFSGSNSGNTATLTISGTQAMDEADYYCQAWVSSTVVFGGGTKLTVLG	0.143 µg/mL
C40M18 (antibody, human IgG1, lambda, V domains shown, Full-length IgG1/lambda; from OmniRat (OMT); VH C40H48, VL C40L64) VH: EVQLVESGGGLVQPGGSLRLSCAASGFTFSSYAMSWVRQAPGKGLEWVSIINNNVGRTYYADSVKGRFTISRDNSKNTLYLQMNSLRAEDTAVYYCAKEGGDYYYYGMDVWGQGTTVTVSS VL: SYELTQPPSVSVSPGQTASITCSGDKLGDKYVCWYQQKPGQSPVVVIYQDSKRPSGIPERFSGSNSGNTATLTISGTQAMDEAYYYCQAWVSSTVVFGGGTKLTVLG	0.267 µg/mL

Each recorded value in this set is attributed to patent US20170088624A1.
